measurement_target: 5-HT7bR (Homo sapiens, UniProt P34969)
Construct: gene HTR7; human splice isoform 5-HT7b stably expressed in HEK293 cells; membranes
Sequence (P34969 1-432): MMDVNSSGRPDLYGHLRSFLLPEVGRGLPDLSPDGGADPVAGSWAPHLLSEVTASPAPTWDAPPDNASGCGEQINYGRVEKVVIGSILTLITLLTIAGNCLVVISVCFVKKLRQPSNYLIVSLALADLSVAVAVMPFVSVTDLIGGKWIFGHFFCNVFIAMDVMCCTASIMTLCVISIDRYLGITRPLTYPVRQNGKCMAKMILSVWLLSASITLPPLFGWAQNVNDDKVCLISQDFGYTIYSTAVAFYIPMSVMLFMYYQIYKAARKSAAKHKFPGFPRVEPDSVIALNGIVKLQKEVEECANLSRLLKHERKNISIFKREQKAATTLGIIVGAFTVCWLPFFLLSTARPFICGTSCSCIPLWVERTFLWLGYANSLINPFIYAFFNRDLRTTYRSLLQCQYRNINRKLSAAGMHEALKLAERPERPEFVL
assay_details: [3H]-5-CT displacement, HEK293 membranes
Format: binding
condition_summary: read-out: 5-HT7
Source text: [3H]-5-CT displacement, HEK293 membranes on 5-HT7bR
measurement_kind: Ki (µM)

{"molecule": "O=C1N(S(=O)(=O)c2ccccc2)c2ccccc2C12CCNC2 (stereo not drawn)", "recorded_result": 58.3}
{"molecule": "O=C1Nc2ccccc2C12CCNC2c1cccc(F)c1 (stereo not drawn)", "recorded_result": 8.48}
{"molecule": "O=S(=O)(c1ccccc1)N1CC2(CCN(Cc3ccccc3)C2)c2ccccc21 (stereo not drawn) [39a]", "recorded_result": 55.8}
{"molecule": "O=S(=O)(c1ccc(F)cc1)N1CC2(CCN(Cc3ccccc3)C2)c2ccccc21 (stereo not drawn) [46c]", "recorded_result": 56.1}
{"molecule": "O=S(=O)(c1cccc(F)c1)N1CC2(CCN(Cc3ccccc3)C2)c2ccccc21 (stereo not drawn) [46b]", "recorded_result": 76}
{"molecule": "O=S(=O)(c1ccccc1)N1CC2(CCN(Cc3cccc(F)c3)C2)c2ccccc21 (stereo not drawn) [44b]", "recorded_result": 31.5}
{"molecule": "CN1CCC2(C1)CN(S(=O)(=O)c1ccccc1)c1ccccc12 (stereo not drawn) [40a]", "recorded_result": 40.2}
{"molecule": "O=S(=O)(c1ccccc1)N1CC2(CCN(Cc3ccc(F)cc3)C2)c2ccccc21 (stereo not drawn) [44c]", "recorded_result": 15.7}
{"molecule": "O=S(=O)(c1ccccc1F)N1CC2(CCN(Cc3ccccc3)C2)c2ccccc21 (stereo not drawn) [46a]", "recorded_result": 42.6}

----------
Reported values of pKi for individual entries
measurement_target: 5-HT6R (Homo sapiens, UniProt P50406)
Construct: gene HTR6; full-length human receptor stably expressed in HEK293 cells; membranes
Sequence (P50406 whole entry): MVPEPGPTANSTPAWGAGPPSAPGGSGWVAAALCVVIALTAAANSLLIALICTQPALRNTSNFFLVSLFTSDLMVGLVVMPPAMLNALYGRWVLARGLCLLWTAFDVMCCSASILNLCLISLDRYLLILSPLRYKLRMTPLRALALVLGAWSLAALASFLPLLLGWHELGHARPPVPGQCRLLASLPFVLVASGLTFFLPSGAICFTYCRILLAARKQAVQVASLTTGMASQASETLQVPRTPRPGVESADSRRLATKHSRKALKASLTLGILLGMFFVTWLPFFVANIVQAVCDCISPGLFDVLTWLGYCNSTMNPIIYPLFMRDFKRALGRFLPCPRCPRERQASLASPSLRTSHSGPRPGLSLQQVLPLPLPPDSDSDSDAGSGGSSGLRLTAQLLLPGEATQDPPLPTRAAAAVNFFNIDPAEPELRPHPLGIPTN
assay_details: [3H]-LSD displacement, HEK293 membranes
Type: binding
pKi: −log10 of the molar value.
measurement_kind: pKi

{"molecule": "O=C1Nc2ccc(F)cc2C12CCNC2c1ccc(F)c(Cl)c1 (stereo not shown) [compound 16, 16]", "recorded_result": 4.78}
{"molecule": "CC(C)c1ccc(C2NCCC23C(=O)Nc2ccccc23)cc1 (stereo not shown) [compound 14, 14]", "recorded_result": 5.06}
{"molecule": "O=C1Nc2ccccc2C12CCNC2c1ccc2c(c1)OCCO2 (stereo not shown) [compound 10, 10]", "recorded_result": 5.39}
{"molecule": "O=C1Nc2ccccc2C12CCNC2c1cccc2cccnc12 (stereo not shown) [compound 12, 12]", "recorded_result": 5.18}
{"molecule": "O=C1Nc2ccccc2C12CCNC2c1ccc(OCc2ccc(F)cc2)cc1 (stereo not shown) [compound 8, 8]", "recorded_result": 5.50}
{"molecule": "N#Cc1cccnc1Oc1ccc(C2NCCC23C(=O)Nc2ccccc23)cc1 (stereo not shown) [compound 11, 11]", "recorded_result": 5.21}
{"molecule": "O=C1Nc2ccccc2C12CCNC2c1ccc2c(c1)OCO2 (stereo not shown) [compound 9, 9]", "recorded_result": 5.49}
{"molecule": "O=S(=O)(c1ccccc1)N1CC2(CCN(Cc3ccncc3)C2)c2ccccc21 (stereo not shown) [39b]", "recorded_result": 5.18}
{"molecule": "COc1cc(C2NCCC23C(=O)Nc2ccccc23)ccc1OC(F)F (stereo not shown) [compound 13, 13]", "recorded_result": 5.11}
{"molecule": "Cn1c(=O)n(C)c2cc(C3NCCC34C(=O)Nc3ccccc34)ccc21 (stereo not shown) [compound 15, 15]", "recorded_result": 5.02}
{"molecule": "O=C1Nc2ccccc2C12CCN(S(=O)(=O)c1ccccc1)C2 (stereo not shown) [compound 18]", "recorded_result": 5.16}
{"molecule": "COc1ccc(C2NCCC23C(=O)Nc2ccccc23)cc1OC (stereo not shown) [compound 7, 7]", "recorded_result": 5.65}
{"molecule": "O=S(=O)(c1ccccc1)N1CC2(CCN(Cc3ccccc3F)C2)c2ccccc21 (stereo not shown) [44a]", "recorded_result": 5.34}
